Assay: In vitro hepatocyte clearance, monkey
Type: in vitro ADME
Conditions: Monkey hepatocytes; read-out: In vitro T1/2
property-label: half-life

Q) Supply half-life value. Item: Cc1ccc(O)c2c3c([nH]c12)CCNCC3 [Cpd #1 (Pharm-136)]
A) > 8.53 h

###

Molecular target: 5-HT2B (Homo sapiens, UniProt P41595)
Test: 5-HT receptor activity (Table 3), 5-HT2B
Type: cell-based
Sequence (P41595 whole entry, species assumed): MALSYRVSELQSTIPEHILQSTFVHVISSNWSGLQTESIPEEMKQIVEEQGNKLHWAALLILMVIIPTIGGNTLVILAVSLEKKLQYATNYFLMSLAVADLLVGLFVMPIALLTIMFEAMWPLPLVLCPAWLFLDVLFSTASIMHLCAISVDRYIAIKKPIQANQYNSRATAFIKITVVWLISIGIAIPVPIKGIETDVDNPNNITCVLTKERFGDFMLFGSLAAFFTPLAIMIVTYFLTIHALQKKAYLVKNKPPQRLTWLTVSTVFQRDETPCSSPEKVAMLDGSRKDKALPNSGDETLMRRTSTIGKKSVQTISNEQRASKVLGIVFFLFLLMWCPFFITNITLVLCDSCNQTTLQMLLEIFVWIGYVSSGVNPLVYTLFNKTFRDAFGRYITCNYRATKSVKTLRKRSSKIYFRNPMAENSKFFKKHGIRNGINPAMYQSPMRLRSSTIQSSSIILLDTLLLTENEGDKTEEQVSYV
property-label: pEC50
Answers are plain numbers, as −log10 of the molar value.

Q) Fill in reported pEC50 for this entry: Cc1ccc(O)c2c3c([nH]c12)CCNCC3 [Cpd #1 (Pharm-136)]
A) 8.38

###

Target: 5-HT2B (Homo sapiens)
Test: 5-HT2B Gq dissociation BRET functional assay
Format: cell-based
Set-up: expressed in transfected cells; host or cells: HEK293T
Conditions: normalized to % 5-HT stimulation
Sequence (P41595 whole entry): as the sequence (P41595 whole entry, species assumed) above
What 5-HT2B BRET Eff was measured for each of the following?
Units required after the number.

Worked cases, answers included:
- compound: "CN(C)CCc1c[nH]c2cccc(O)c12 [psilocin, reference compound]"
  measured-value: "63%"
- compound: "Cc1ccc(O)c2c3c([nH]c12)CCNCC3"
  measured-value: "52%"
- compound: "Cc1ccc(O)c2[nH]c3c(c12)CCNCC3"
  measured-value: "95%"
- compound: "CN1CCc2[nH]c3cccc(O)c3c2CC1"
  measured-value: "28%"
- compound: "NCCc1c[nH]c2cccc(O)c12 [4-hydroxytryptamine, reference compound]"
  measured-value: "100%"

Record 5-HT2B BRET Eff for all entries; do not skip any.
1. Cc1ccc(O)c2c3c([nH]c12)C(C)CNCC3 (stereo not shown)
2. Oc1cccc2[nH]c3c(c12)CCNCC3

A)
["54%", "57%"]

Dear colleague, could you please provide 5-HT2B BRET Eff for the compounds listed below?
1. Cc1cc(F)c(O)c2c3c([nH]c12)CCNCC3
2. Cc1ccc(O)c2c3c([nH]c12)CCN(Cc1ccccc1O)CC3

A)
1: 77%; 2: −2.6%

Q) Determine its reported 5-HT2B BRET Eff: Cc1cccc2c(CCN(C)C)c[nH]c12 [7,N,N-TMT, reference compound]
A) 36%

###

Target: 5-HT1D (Homo sapiens, UniProt P28221)
Sequence (P28221 whole entry, species assumed): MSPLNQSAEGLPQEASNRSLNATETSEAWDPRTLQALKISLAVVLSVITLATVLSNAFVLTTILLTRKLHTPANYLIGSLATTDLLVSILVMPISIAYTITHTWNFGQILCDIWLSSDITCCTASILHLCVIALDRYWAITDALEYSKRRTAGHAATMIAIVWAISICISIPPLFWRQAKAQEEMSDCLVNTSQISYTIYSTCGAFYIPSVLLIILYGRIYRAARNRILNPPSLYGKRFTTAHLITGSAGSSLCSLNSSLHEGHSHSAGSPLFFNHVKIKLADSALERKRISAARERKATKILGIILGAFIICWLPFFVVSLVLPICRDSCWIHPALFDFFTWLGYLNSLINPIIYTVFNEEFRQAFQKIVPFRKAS
Experiment: 5-HT receptor activity (Table 3), 5-HT1D
property-label: pEC50
One number for each entry, as −log10 of the molar value.

Q) Give the measured pEC50 for Cc1ccc(O)c2c3c([nH]c12)CCNCC3
A) 6.49

###

Molecular target: 5-HT2A (Homo sapiens, UniProt P28223)
Sequence (P28223 whole entry): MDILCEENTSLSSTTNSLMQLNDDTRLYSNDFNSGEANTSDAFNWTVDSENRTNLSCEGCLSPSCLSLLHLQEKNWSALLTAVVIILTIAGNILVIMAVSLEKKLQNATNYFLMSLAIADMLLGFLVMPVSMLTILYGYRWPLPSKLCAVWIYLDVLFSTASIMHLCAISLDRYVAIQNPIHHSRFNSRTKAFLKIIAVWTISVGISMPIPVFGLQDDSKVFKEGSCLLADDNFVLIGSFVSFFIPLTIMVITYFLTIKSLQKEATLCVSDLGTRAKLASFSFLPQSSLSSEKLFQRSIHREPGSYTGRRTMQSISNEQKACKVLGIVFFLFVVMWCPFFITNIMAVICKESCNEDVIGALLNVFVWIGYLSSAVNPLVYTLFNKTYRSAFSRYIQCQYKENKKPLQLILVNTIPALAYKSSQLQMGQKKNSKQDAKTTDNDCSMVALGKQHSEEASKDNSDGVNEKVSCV
Test: 5-HT2A Gq dissociation BRET functional assay
Assay type: cell-based
Set-up: expressed in transfected cells; host or cells: HEK293T
One threshold, 6 nM, splits the recorded EC50 values: lower ones are rule met, equal or higher ones are rule not met.

Record excerpt, results attached:
- molecule: "Cc1cc(F)c(O)c2c3c([nH]c12)CCNCC3"
  class-name: "rule not met"
- molecule: "Oc1cccc2[nH]c3c(c12)CCNCC3"
  class-name: "rule met"
- molecule: "Cc1ccc(O)c2c3c([nH]c12)CCN(Cc1ccccc1O)CC3"
  class-name: "rule not met"
- molecule: "Cc1ccc(O)c2[nH]c3c(c12)CCNCC3"
  class-name: "rule met"
- molecule: "Cc1ccc(O)c2c3c([nH]c12)C(C)CNCC3 (stereo not shown)"
  class-name: "rule not met"

Q) Problem: For the molecule CN1CCc2c(n(C)c3cccc(O)c23)CC1 , is EC50 under 6 nM?
A) rule not met

Q) Hello, I'm reviewing records and need to know if EC50 of CN1CCc2[nH]c3cccc(O)c3c2CC1 is below 6 nM. Could you check?
A) rule not met

Q) Is it true that EC50 reported for Cc1ccc(O)c2c3c([nH]c12)CCN(C)CC3 is less than 6 nM?
A) rule met

Q) Here's an entry: Cc1ccc(O)c2c3c([nH]c12)CCNCC3 . Is its EC50 below 6 nM?
A) rule met

###

Assay: Plasma PK in dog
Assay type: in vivo
Conditions: IV, 2 mg/kg, read-out: Cltot (converted)
From the text: Tables 7a and 7b summarize, among other things, the observed plasma PK properties in animals, for Compound 1: […]
property-label: clearance (mL/min/kg)
Answers are plain numbers, in mL/min/kg.

Q) Input Cc1ccc(O)c2c3c([nH]c12)CCNCC3 , output reported clearance.
A) 24.6

Cited source: patent US20250296934A1
